System: KMS-Cell
test: KMS cell IC50 (Table 4)
Assay type: cell-based
experimental-setup: KMS cells
Quick list: IC50 per entry.
The reply should contain only the number, in µM.

# annotated cases, reported IC50 shown
Fc1cccc(F)c1-c1ccc2[nH]nc(-c3cncc(OC4CNCC5CC54)n3)c2c1 (centres unmarked) [Example 444]    5.05
CC[C@H]1CCNC[C@@H]1Oc1cncc(-c2n[nH]c3ccc(-c4c(F)cccc4F)cc23)n1 [Example 398]    10.7
CC(c1ccc2[nH]nc(-c3cncc(O[C@H]4CNCCC45CC5)n3)c2c1)C(F)(F)F (some centres unmarked) [Example 258]    3.19

# IC50 (molecule: O=c1cc(-c2n[nH]c3ccc(-c4c(F)cccc4F)cc23)nc(OC2CNCCC2F)[nH]1 (centres unmarked) [Example 554] ) is 6.26

The molecule c1cc(-c2ccc3[nH]cc(-c4cncc(O[C@@H]5CCCNC5)n4)c3c2)cc(-c2ccno2)c1 [Example 356] showed IC50 equal to 12.6

Kindly note the recorded IC50 for N#Cc1ccccc1-c1ccc2[nH]nc(-c3cncc(O[C@H]4CNCCC45CC5)n3)c2c1 [Example 408] , which is 1.3

Sample c1cc2[nH]nc(-c3cncc(O[C@H]4CNCCC45CC5)n3)c2cc1C1CCC1 [Example 453] ; IC50 observed: 4.19

----------
tgt: full length recombinant Pim-3 protein (Homo sapiens, UniProt Q86V86)
Construct: by full length recombinant Pim-1, Pim-2, or Pim-3 protein
test: Pim-3 enzyme assay (HTRF, phosphorylation of biotinylated-BAD (S112) peptide)
experimental-setup: read-out: Pim3 IC50
recorded-metric: pIC50
A value of pIC50 is the negative decimal logarithm of a concentration given in moles per litre.

Study these solved cases before continuing.
CC(C)Oc1cncc(-c2ccc3[nH]cc(-c4ccc(F)cn4)c3c2)n1    6.27
NC1CCN(c2cncc(-c3c[nH]c4ccc(-c5c(F)cccc5F)cc34)n2)CC1    8.30
COc1cncc(-c2ccc3[nH]nc(-c4cncc(O[C@@H]5CCCNC5)n4)c3c2)c1    7.92

Record COc1cncc(-c2c[nH]c3ccc(-c4cncc(OC(C)C)n4)cc23)n1 has full length recombinant Pim-3 protein (Homo sapiens, UniProt Q86V86) pIC50 equal to 6.90

----------
tgt: full length recombinant Pim-2 protein (Homo sapiens, UniProt Q9P1W9)
Construct: by full length recombinant Pim-1, Pim-2, or Pim-3 protein; hexahistidine tag followed by a thrombin cleavage site (N); made in house; host or cells: Sf9 (baculovirus) or E. coli (pET28)
Sequence (Q9P1W9 whole entry): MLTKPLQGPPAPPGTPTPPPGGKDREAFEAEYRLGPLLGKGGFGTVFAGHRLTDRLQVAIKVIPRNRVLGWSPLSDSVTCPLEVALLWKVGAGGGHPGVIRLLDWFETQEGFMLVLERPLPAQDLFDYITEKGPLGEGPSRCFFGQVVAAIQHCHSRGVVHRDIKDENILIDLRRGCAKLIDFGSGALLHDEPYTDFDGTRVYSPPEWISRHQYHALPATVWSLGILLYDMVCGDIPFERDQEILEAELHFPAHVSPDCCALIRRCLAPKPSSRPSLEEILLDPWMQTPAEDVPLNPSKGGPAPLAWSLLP
test: Pim-2 enzyme assay (HTRF, phosphorylation of biotinylated-BAD (S112) peptide)
Format: biochemical
experimental-setup: read-out: Pim2_IC50
recorded-metric: IC50 (nM)
Report the value in nM with no unit label.

For record c1ccc(Nc2ccc3[nH]nc(-c4cncc(O[C@H]5CNCCC56CC6)n4)c3c2)cc1 the listed IC50 is 39

Lab book: IC50 of c1cc(-c2ccc3[nH]cc(-c4cncc(O[C@@H]5CCCNC5)n4)c3c2)cc(-c2cc[nH]n2)c1 noted as 178

Measured IC50 of C#Cc1ccccc1-c1ccc2[nH]nc(-c3cncc(O[C@H]4CNCCC45CC5)n3)c2c1 : 44

Field IC50 (entry C=C(c1ccc2[nH]nc(-c3cncc(O[C@H]4CNCCC45CC5)n3)c2c1)C(F)(F)F ) reads 2

The value of IC50 measured for the molecule CNC(=O)c1ccc2[nH]nc(-c3cncc(N[C@@H]4CCCNC4)n3)c2c1 turned out to be 192

Measured IC50, O[C@@H]1CN(c2cncc(-c3n[nH]c4ccc(-c5c(F)cccc5F)cc34)n2)C[C@@H]1O : 137

IC50 reported for this molecule Cc1ccn(-c2cccc(-c3ccc4[nH]cc(-c5cncc(O[C@@H]6CCCNC6)n5)c4c3)n2)n1 : 114
